The reader will find reported IC50 values listed item by item below.
# target_desc: 11β-HSD2 (Homo sapiens)
# Construct: endogenous in cells
# Sequence (P80365 whole entry): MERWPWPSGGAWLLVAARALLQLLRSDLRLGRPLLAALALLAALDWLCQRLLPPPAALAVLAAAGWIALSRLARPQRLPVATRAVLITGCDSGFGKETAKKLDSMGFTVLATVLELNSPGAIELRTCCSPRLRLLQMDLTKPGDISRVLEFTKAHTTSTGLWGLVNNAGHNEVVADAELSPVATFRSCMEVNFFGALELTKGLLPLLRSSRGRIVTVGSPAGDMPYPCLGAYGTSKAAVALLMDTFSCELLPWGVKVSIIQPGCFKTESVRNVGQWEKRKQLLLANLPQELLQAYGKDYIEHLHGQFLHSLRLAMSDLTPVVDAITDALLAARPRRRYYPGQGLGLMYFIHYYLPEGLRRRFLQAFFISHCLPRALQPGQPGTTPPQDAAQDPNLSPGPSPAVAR
# protocol_details: Cellular assay of 11β-HSD2 activity in HepG2 cells
# condition_description: 4 hour pre-incubation, 10^-5M to 10^-10M, read-out: HSD2 cellular HepG2 Score
parameter: IC50

>>> result("Cc1cccc(NC(C)(C)C(=O)N[C@H]2[C@@H]3CC4C[C@H]2C[C@](F)(C4)C3)c1")
"> 10000 nM"
>>> result("CC(C)(Oc1ccccc1)C(=O)N[C@H]1[C@@H]2CC3C[C@H]1C[C@](O)(C3)C2")
"1000 to 10000 nM"
>>> result("Cc1ccccc1NC(C)(C)C(=O)N[C@H]1[C@@H]2CC3C[C@H]1C[C@](O)(C3)C2")
"1000 to 10000 nM"
>>> result("Cc1cc(Cl)ccc1OC(C)(C)C(=O)N[C@H]1[C@@H]2CC3C[C@H]1C[C@](NS(=O)(=O)N(C)C)(C3)C2")
"1000 to 10000 nM"
>>> result("CC(=O)N[C@@]12CC3C[C@H](C1)[C@H](NC(=O)C(C)(C)Oc1ccc(Cl)cc1C)[C@@H](C3)C2")
"< 1000 nM"
>>> result("COC(=O)CC(=O)N[C@@]12CC3C[C@H](C1)[C@H](NC(=O)C(C)(C)Oc1ccc(Cl)cc1C)[C@@H](C3)C2")
"1000 to 10000 nM"
>>> result("Cc1ccc(OC(C)(C)C(=O)N[C@H]2[C@@H]3CC4C[C@H]2C[C@](OC(=O)Nc2cccc(C)c2)(C4)C3)cc1")
"1000 to 10000 nM"
>>> result("CN(C)c1cccc(OC(C)(C)C(=O)N[C@H]2[C@@H]3CC4C[C@H]2C[C@](O)(C4)C3)c1")
"< 1000 nM"
